assay_name: Cytotoxicity in uninfected CEM cells (XTT toxicity control)
test_settings: human, uninfected CEM cells (T4 lymphocytes)
result_type: CC50 at 6 days

Illustrative cases are given below, each with its answer.
compound	observed
COc1cc2c(cc1OC)C(=O)N1CCCC1C(=O)S2 (centres unmarked)	> 200 µM
O=C1Sc2ccccc2C(=O)N2CSCC12 (racemic)	> 200 µM
O=C1Sc2cc3ccccc3cc2C(=O)N2CSCC12 (racemic)	> 316 µM
CC(=O)OC1Sc2ccccc2C(=O)N2CCCC12 (centres unmarked)	> 200 µM
O=C1Sc2ccccc2C(=O)N2CCSC12 (centres unmarked)	> 200 µM
O=C1Sc2ccccc2C(=O)N2CCCCC12 (centres unmarked)	> 200 µM

Entry under review: COc1cc2c(cc1OC)C(=O)N1CCCC1CS2 (centres unmarked) . Reported CC50 at 6 days? > 200 µM

Entry under review: O=C1Sc2cc3ccccc3cc2C(=O)N2CCSC12 (racemic) . Reported CC50 at 6 days? > 316 µM

Entry under review: COc1cc2c(cc1OC)C(=O)N1CSCC1C(=O)S2 (centres unmarked) . Reported CC50 at 6 days? > 50 µM

Entry under review: O=C1c2ccccc2SC(O)C2CCCN12 (centres unmarked) . Reported CC50 at 6 days? > 200 µM

Entry under review: Cc1ccc2c(c1)C(=O)N1CC[S+]([O-])C1C(=O)S2 (racemic) . Reported CC50 at 6 days? > 100 µM

====

A collection of molecules and their measured CC50
Tested on: T4 lymphocytes (CEM cell line)
assay_name: Cytotoxicity in uninfected CEM cells (XTT toxicity control)
test_settings: read-out: Cell data (μM) CC50: 50% cytotoxic concentration; uninfected CEM cells, 6 days, XTT
Procedure: The anti-HIV drug testing was performed at NCI based on a protocol described by Weislow et al.^36 All compounds were dissolved in dimethyl sulfoxide and diluted 1:100 in cell culture medium. […] Cultures were incubated at 37° C. in a 5% CO2 atmosphere for 6 days. […] Individual wells were analyzed spectrophotometrically to quantitate formazan production, and in addition were viewed microscopically for detection of viable cells and confirmation of protective activity.

Illustrative cases are given below, each with its answer.
molecule	CC50
Cc1ccc2c(c1)C(=O)N1CSCC1C(=O)S2 (racemic)	35 µM
O=C1Sc2ccc(Cl)cc2C(=O)N2CCSC12 (racemic)	> 50 µM
O=C1Sc2ccc(Cl)cc2C(=O)N2CSCC12 (racemic)	> 100 µM
O=C1Sc2cc([N+](=O)[O-])ccc2C(=O)N2CSCC12 (racemic)	> 50 µM

Read the next record carefully.
Entry under review: CN1CCN([C@@H]2Sc3ccccc3C(=O)N3CCC[C@@H]23)CC1 (racemic) . Reported CC50? > 125 µM

====

A collection of molecules and their measured melting point

Illustrative cases are given below, each with its answer.
molecule	observed
Cc1ccc2c(c1)C(=O)N1CC[S+]([O-])C1C(=O)S2 (racemic) [Compound 15]	211 to 212 °C
COc1ccc2c(c1)C(=O)N1C[S+]([O-])CC1C(=O)S2 (racemic) [Compound 18]	172 to 174 °C
CN1CCN(Cc2ccc3n2Cc2ccccc2SC3c2ccccc2)CC1 (racemic) [Compound 31]	161 to 162 °C
O=C1c2ccccc2SC(O)(c2ccccc2)C2CCCN12 (racemic) [Compound 26]	137 to 141 °C

Read the next record carefully.
Entry under review: O=C1Sc2ccc(Br)cc2C(=O)N2CSCC12 (racemic) [Compound 7] . Reported melting point? 213 to 214 °C

Entry source: patent US7015212B1
